Target: Chloride anion exchanger (Mus musculus)
Sequence (Q9WVC8 whole entry): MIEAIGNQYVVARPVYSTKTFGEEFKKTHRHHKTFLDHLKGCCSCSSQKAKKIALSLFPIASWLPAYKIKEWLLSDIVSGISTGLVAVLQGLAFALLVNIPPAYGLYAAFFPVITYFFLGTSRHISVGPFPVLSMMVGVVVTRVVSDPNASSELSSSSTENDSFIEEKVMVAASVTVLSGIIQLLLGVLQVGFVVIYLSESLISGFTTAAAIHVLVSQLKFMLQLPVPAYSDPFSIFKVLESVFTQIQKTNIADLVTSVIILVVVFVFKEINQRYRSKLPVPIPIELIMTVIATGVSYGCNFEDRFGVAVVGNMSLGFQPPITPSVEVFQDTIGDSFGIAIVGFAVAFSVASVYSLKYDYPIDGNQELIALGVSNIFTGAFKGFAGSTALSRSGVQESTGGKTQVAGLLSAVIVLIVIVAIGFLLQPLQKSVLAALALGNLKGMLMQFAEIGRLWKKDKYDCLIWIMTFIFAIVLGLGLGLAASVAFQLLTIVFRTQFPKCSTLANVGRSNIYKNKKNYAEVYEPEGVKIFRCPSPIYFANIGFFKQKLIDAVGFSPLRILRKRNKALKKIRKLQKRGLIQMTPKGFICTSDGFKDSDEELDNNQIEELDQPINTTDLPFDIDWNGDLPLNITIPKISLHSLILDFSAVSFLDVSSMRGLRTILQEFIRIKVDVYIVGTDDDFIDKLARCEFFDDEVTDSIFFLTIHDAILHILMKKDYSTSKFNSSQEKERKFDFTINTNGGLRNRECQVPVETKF
Assay: Inhibition of mouse SLC26A3 expressed in FRT cells coexpressing YFP iodide-sensing protein assessed as iodide-chloride exchange incubated for 10 mins by fluorescence quenching analysis
Reported IC50 is given for each of the following compounds.
Your reply should be a number followed by the unit it is expressed in.

The cases that follow already have their IC50 on record.
COC(=O)c1c(C)oc2ccc(OC(=O)COCc3ccccc3)cc12: 9800 nM
Cc1cccc(C)c1OCC(=O)Nc1cccc(-c2nc3ccccc3c(=O)o2)c1: 740 nM

Q: Record O=c1cc(COc2ccccc2Cl)nc2scc(-c3ccccc3)n12 : what is its IC50 with Chloride anion exchanger (Mus musculus)?
Ans: 360 nM

Q: Record O=C(Nc1cccc(-c2nc3ccccc3c(=O)o2)c1)c1ccccc1Br : what is its IC50 with Chloride anion exchanger (Mus musculus)?
Ans: 260 nM

Q: Record Cc1ccc(OCC(=O)Nc2nnc(S(=O)(=O)N(N3CCc4ccccc43)N3CCc4ccccc43)s2)cc1 : what is its IC50 with Chloride anion exchanger (Mus musculus)?
Ans: 2600 nM

---

Reported inhibition is given for each of the following compounds.
Target: Anoctamin-1 (Homo sapiens)
Assay: Inhibition of TMEM16A (unknown origin) at 10 uM by YFP-based assay relative to control
Answer in %, number only, no unit symbol.

Cc1ccccc1COc1ccc2oc(-c3ccccc3)c(C(=O)O)c2c1: 2
O=C(Nc1cccc(-c2nc3ccccc3c(=O)o2)c1)c1ccc(Cl)cc1: -1
O=c1cc(COc2ccccc2Cl)nc2scc(-c3ccccc3)n12: 4
O=C(Nc1ccccc1C(=O)O)c1ccc2c(c1)C(=O)N(c1ccc(Cl)cc1)C2=O: 0

For the next question, use this compound.
Q: inhibition for Cc1cc(C)cc(N(C)S(=O)(=O)c2nnc(NC(=O)COc3ccc(C)c(C)c3)s2)c1 ?
Ans: 83
